# Assay Name: Solubility of nomegestrol acetate in solvent mixtures
# Type: physicochemical
# Run Parameters: 95° ethanol/water binary mixture, water, 95° ethanol/water binary mixture, 0% 95° ethanol; read-out: Solubility of nomegestrol acetate
Attribute Measured: solubility (µg/mL)

CC(=O)O[C@]1(C(C)=O)CC[C@H]2[C@@H]3C=C(C)C4=CC(=O)CC[C@@H]4[C@H]3CC[C@@]21C [nomegestrol acetate] :: 56

----------
# Assay Name: Solubility of nomegestrol acetate in solvent mixtures
# Assay type: physicochemical
# Run Parameters: aqueous-alcoholic solvent mixture, aqueous with cosolvent or surfactant or cyclodextrin, aqueous-alcoholic mixture, 0% propyleneglycol, 8% Solketal; read-out: Solubility of nomegestrol acetate
Attribute Measured: solubility (µg/mL)

CC(=O)O[C@]1(C(C)=O)CC[C@H]2[C@@H]3C=C(C)C4=CC(=O)CC[C@@H]4[C@H]3CC[C@@]21C [nomegestrol acetate] :: 8600

----------
# Assay Name: Solubility of nomegestrol acetate in solvent mixtures
# Assay type: physicochemical
# Run Parameters: 95° ethanol/water binary mixture, aqueous with cosolvent or surfactant or cyclodextrin, 95° ethanol/water binary mixture, 70% 95° ethanol; read-out: Solubility of nomegestrol acetate
Attribute Measured: solubility (mg/mL)

CC(=O)O[C@]1(C(C)=O)CC[C@H]2[C@@H]3C=C(C)C4=CC(=O)CC[C@@H]4[C@H]3CC[C@@]21C [nomegestrol acetate] :: 24.9

----------
# Assay Name: Solubility of nomegestrol acetate in solvent mixtures
# Format: physicochemical
# Run Parameters: ethanol/water/propyleneglycol ternary mixture, aqueous with cosolvent or surfactant or cyclodextrin, System II (Ethanol 95° 40%/Demineralized water 60%), 2% propyleneglycol; read-out: Solubilities
# Procedure: The effect of a ternary mixture of solvents, ethanol/water (45:55)/propyleneglycol on the solubility of nomegestrol acetate was determined. We also examined the possibility of lowering the proportion of alcohol in the solvent, by means of this ternary mixture, while maintaining similar solubility; for this we choose the influence of propyleneglycol on solubility in ethanol/water systems (40:60 and 30:70).
Attribute Measured: solubility (µg/mL)

CC(=O)O[C@]1(C(C)=O)CC[C@H]2[C@@H]3C=C(C)C4=CC(=O)CC[C@@H]4[C@H]3CC[C@@]21C [nomegestrol acetate] :: 2600

----------
# Assay Name: Solubility of nomegestrol acetate in solvent mixtures
# Format: physicochemical
# Run Parameters: 95° ethanol/water binary mixture, aqueous with cosolvent or surfactant or cyclodextrin, 95° ethanol/water binary mixture, 10% 95° ethanol; read-out: Solubility of nomegestrol acetate
Attribute Measured: solubility (µg/mL)

CC(=O)O[C@]1(C(C)=O)CC[C@H]2[C@@H]3C=C(C)C4=CC(=O)CC[C@@H]4[C@H]3CC[C@@]21C [nomegestrol acetate] :: 70

----------
# Assay Name: Solubility of nomegestrol acetate in solvent mixtures
# Type: physicochemical
# Run Parameters: aqueous-alcoholic solvent mixture, aqueous with cosolvent or surfactant or cyclodextrin, aqueous-alcoholic mixture, 8% propyleneglycol, 3% Transcutol®; read-out: Solubility of nomegestrol acetate
Attribute Measured: solubility (µg/mL)

CC(=O)O[C@]1(C(C)=O)CC[C@H]2[C@@H]3C=C(C)C4=CC(=O)CC[C@@H]4[C@H]3CC[C@@]21C [nomegestrol acetate] :: 7950

----------
# Assay Name: Solubility of nomegestrol acetate in solvent mixtures
# Type: physicochemical
# Run Parameters: ethanol/water/Labrasol solvent mixture with propyleneglycol, aqueous with cosolvent or surfactant or cyclodextrin, System Ethanol 95° 45%/Water 50%/Labrasol® 5%, 10% propyleneglycol; read-out: Solubility of l'nomegestrol acetate
Attribute Measured: solubility (µg/mL)

CC(=O)O[C@]1(C(C)=O)CC[C@H]2[C@@H]3C=C(C)C4=CC(=O)CC[C@@H]4[C@H]3CC[C@@]21C [nomegestrol acetate] :: 9500

Data provenance: patent US20080227763A1
